assay.target: EPHA2 (Homo sapiens, UniProt P29317)
Construct: purchased Life Technologies
Sequence (P29317 24-976): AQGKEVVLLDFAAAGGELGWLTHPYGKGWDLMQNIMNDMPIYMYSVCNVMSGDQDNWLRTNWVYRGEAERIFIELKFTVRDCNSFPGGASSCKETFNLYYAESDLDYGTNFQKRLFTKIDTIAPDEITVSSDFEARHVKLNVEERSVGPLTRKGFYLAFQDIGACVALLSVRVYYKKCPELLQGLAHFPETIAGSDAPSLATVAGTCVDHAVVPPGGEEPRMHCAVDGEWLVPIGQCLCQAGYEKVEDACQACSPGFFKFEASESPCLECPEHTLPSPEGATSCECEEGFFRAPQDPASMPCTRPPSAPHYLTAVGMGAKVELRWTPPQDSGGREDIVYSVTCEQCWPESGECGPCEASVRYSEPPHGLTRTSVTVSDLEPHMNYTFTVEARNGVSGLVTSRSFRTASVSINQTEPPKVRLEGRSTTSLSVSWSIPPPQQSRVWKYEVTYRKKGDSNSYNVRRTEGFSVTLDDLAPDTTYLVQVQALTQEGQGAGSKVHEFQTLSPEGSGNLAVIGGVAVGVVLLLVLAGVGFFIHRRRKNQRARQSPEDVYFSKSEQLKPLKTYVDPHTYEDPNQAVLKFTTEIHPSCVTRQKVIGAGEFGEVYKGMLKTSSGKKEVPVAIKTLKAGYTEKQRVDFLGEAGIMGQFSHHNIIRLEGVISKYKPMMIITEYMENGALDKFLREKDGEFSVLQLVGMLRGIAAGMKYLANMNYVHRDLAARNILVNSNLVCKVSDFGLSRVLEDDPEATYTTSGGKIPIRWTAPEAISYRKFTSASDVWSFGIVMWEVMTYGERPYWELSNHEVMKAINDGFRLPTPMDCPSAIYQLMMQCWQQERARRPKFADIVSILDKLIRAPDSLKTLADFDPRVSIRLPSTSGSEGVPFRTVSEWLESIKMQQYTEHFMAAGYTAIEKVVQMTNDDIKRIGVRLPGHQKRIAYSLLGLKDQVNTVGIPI
assay.protocol: EPHA2 kinase assay, IMAP fluorescence polarization
Type: biochemical
particulars: 50 or 100 μM ATP, Tris pH 8.5, average
Procedure: SIK2, SIK1, SIK3, Abl, Src and EPHA2 Kinase Assays SIK2, SIK1, SIK3, Abl, Src and EPHA2 assays were performed using an IMAP fluorescence polarization assay format (Molecular Devices Inc.). […] After incubation to allow the detection reagents to bind to the phosphorylated peptide, fluorescence polarization was measured on a Tecan Infinite plate reader at excitation (470 nm) and emission (530 nm) wavelengths. […]
Flag rule - Ki less than 90 nM flags Met; the remaining entries get Not met.

Hello, I'm reviewing records and need to know if Ki of "Cc1cccc(F)c1-c1cc(NC2CCN(C)CC2)c2cc(N)ncc2c1F" is below 90 nM. Could you check?
Not met

Item: "CNC[C@H]1CCCN(c2cc(-c3c(C)cccc3F)cc3cnc(N)cc23)C1"
Met

Item: "CNC1CN(c2cc(-c3c(C)cccc3F)cc3cnc(N)cc23)C1"
Not met

Item: "Cc1cccc(F)c1-c1cc(N2CCC[C@H](CN(C)C)C2)c2cc(N)ncc2c1"
Not met

Item: "Cc1cccc(F)c1-c1cc(NC[C@H]2CCCNC2)c2cc(N)ncc2c1"
Met

Item: "Cc1cccc(Cl)c1-c1cc(NC2CCNCC2)c2ncncc2c1"
Not met

Item: "Cc1cccc(F)c1-c1cc(N2CCC[C@@H](CN(C)C)C2)c2cc(N)ncc2c1"
Not met

###

Here's a batch of compounds along with measured Ki for Abl (Homo sapiens, UniProt P00519).
The answer is to be given in nM; state only the numeric part.

What is its Ki for Abl (Homo sapiens, UniProt P00519)? Entry: "CNC[C@H]1CCCN(c2cc(-c3c(C)cccc3F)cc3cnc(N)cc23)C1"
10.5

Item: "CC(=O)Nc1cc2c(NC3CCN(C)CC3)cc(-c3c(C)cccc3F)cc2cn1"
0.243

Item: "Cc1cccc(F)c1-c1ccc2c(C(=O)NC3CCN(C)CC3)c(N)ncc2c1"
667

Item: "Cc1cccc(F)c1-c1cc(NC[C@H]2CCCNC2)c2cc(N)ncc2c1"
11.1

Item: "Cc1cccc(F)c1-c1cc(N2CCC(N(C)C)CC2)c2cc(N)ncc2c1"
59.9

Item: "Cc1cccc(F)c1-c1cc(N[C@H]2CCCNC2)c2cc(N)ncc2c1"
0.341

Item: "CC(=O)N[C@@H]1CCN(c2cc(-c3c(C)cccc3F)cc3cnc(N)cc23)C1"
88.9

Item: "Cc1cccc(F)c1-c1cc(NC[C@@H]2CCCN2C)c2cc(N)ncc2c1"
9.11

Item: "Cc1cccc(F)c1-c1cc(N[C@@H]2CCCCN(C)C2)c2cc(N)ncc2c1"
15.2

Item: Cc1cccc(F)c1-c1cc(NC(=O)C2CCNC2)c2cc(N)ncc2c1 (stereo not drawn)
27.6

Item: "Cc1cccc(F)c1-c1ccc2c(C(=O)NC3CCNCC3)c(N)ncc2c1"
446

Item: "Cc1cccc(F)c1-c1cc(OC2CNC2)c2cc(N)ncc2c1"
13.5

Item: "Cc1cccc(F)c1-c1cc(NC2CNC2)c2ccncc2c1"
24.9

Item: "CNC1CN(c2cc(-c3c(C)cccc3F)cc3cnc(N)cc23)C1"
19.3

Item: "Cc1cccc(Cl)c1-c1ccc2c(C(=O)N[C@H]3CCNC3)c(N)ncc2c1"
345

Item: "Cc1cccc(Cl)c1-c1cc(NC2CNC2)c2cc(N)ncc2c1"
182

###

Here's a batch of molecules along with measured log10 of Ki for SIK1 (Homo sapiens, UniProt P57059).
The base-10 logarithm of Ki, taken with Ki in nM, is what appears here.

Bench note: what log10 of Ki did "Cc1cccc(Cl)c1-c1cc(NC2CN(C)C2)c2cc(N)ncc2c1" show?
0.30

Item: "Cc1cccc(F)c1-c1cc(N2CCC[C@H](CN(C)C)C2)c2cc(N)ncc2c1"
0.90

Item: "Cc1cccc(F)c1-c1cc(NC2CCNCC2)c2nc(N)ncc2c1"
-0.47

Item: "CC(=O)NC1CCN(c2cc(-c3c(C)cccc3F)cc3cnc(N)cc23)CC1"
1.08

Item: "CCN1CCC(Nc2cc(-c3c(C)cccc3Cl)cc3cnc(N)nc23)CC1"
-0.39

Item: Cc1cccc(F)c1-c1cc(C(=O)NC2CCNC2)c2cc(N)ncc2c1 (stereo not drawn)
4.11

Item: "Cc1cccc(F)c1-c1ccc2c(C(=O)NC3CN(C)C3)c(N)ncc2c1"
1.73

Item: "Cc1cccc(F)c1-c1cc(NC(=O)C2CNC2)c2cc(N)ncc2c1"
1.25

Item: Cc1cccc(F)c1-c1cc(NC(=O)C2CCNC2)c2cc(N)ncc2c1 (stereo not drawn)
0.28

###

Here's a batch of molecules along with measured Ki for Src (Homo sapiens, UniProt P12931).
The answer is to be given in µM; state only the numeric part.

Bench note: what Ki did Cc1cccc(F)c1-c1cc(NC2CCNCC2)c2c(C#N)c(N)ncc2c1 [Example 133] show?
0.00632

Item: Cc1cccc(F)c1-c1cc(N2CC[C@H](N(C)C)C2)c2cc(N)ncc2c1 [Example 59]
2.17

Item: Cc1cccc(F)c1-c1cc(NC[C@@H]2CCCCN2)c2cc(N)ncc2c1 [Example 14]
0.0678

Item: Cc1cccc(F)c1-c1cc(C(=O)NC2CCN(C)CC2)c2cc(N)ncc2c1 [Example 116]
0.0802

Item: Cc1cccc(F)c1-c1cc(NCC2CCN(C)CC2)c2cc(N)ncc2c1 [Example 71]
0.149

Item: Cc1cccc(F)c1-c1cc(C(=O)NC2CCN(C)C2)c2cc(N)ncc2c1 (stereo not drawn) [Example 99]
0.0329

Item: Cc1cccc(Cl)c1-c1cc(NC2CCNCC2)c2nc(N)ncc2c1 [Example 137]
0.0187

Item: Cc1cccc(F)c1-c1cc(N[C@H]2CCCNC2)c2cc(N)ncc2c1 [Example 26]
0.163

###

assay.target: SIK1 (Homo sapiens, UniProt P57059)
Sequence (P57059 whole entry): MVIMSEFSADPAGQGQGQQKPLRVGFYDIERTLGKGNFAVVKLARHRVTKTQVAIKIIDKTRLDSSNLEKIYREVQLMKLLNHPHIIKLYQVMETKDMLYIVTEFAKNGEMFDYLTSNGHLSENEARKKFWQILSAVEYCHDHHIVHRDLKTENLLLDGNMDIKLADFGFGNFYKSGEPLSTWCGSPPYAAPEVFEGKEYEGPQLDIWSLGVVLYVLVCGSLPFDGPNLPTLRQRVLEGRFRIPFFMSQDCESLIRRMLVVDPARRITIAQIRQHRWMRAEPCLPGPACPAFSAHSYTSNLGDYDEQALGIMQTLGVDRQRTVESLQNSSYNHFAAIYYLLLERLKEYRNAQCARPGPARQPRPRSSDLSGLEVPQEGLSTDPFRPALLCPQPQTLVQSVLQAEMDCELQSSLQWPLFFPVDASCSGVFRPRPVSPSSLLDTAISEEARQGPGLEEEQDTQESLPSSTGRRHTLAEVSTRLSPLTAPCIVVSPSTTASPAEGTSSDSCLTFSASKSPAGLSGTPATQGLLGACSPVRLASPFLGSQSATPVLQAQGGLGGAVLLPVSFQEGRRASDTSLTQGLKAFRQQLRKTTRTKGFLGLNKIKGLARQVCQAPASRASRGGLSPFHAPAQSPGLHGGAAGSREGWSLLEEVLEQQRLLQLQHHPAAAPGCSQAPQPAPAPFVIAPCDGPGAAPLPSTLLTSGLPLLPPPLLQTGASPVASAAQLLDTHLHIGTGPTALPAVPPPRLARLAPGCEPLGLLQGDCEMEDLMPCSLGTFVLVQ
Can you tell me Ki for the items I'm about to list?
The answer is to be given in nM; state only the numeric part.

Bench note: what Ki did "Cc1cccc(F)c1-c1cc(NC2CN(C)C2)c2ccncc2c1" show?
3.73

Item: "CN[C@H]1CCN(c2cc(-c3c(C)cccc3F)cc3cnc(N)cc23)C1"
2

Item: "Cc1cccc(F)c1-c1cc(C(=O)NC2CCN(C)CC2)c2cc(N)ncc2c1"
8.53

Item: "Cc1cccc(F)c1-c1cc(NC[C@H]2CCCNC2)c2cc(N)ncc2c1"
0.524

Item: "Cc1cccc(F)c1-c1cc(OC2CNC2)c2cc(N)ncc2c1"
1.01

Item: "CNC1CCN(c2cc(-c3c(C)cccc3F)cc3cnc(N)cc23)CC1"
1.01

Item: "Cc1cccc(Cl)c1-c1ccc2c(C(=O)NC3CCNCC3)c(N)ncc2c1"
6.07

Item: "Cc1cccc(F)c1-c1cc(NC2CCOCC2)c2cc(N)ncc2c1"
55.5

Item: "Cc1cccc(F)c1-c1cc(NC2CCN(C)CC2)c2cc(N)ncc2c1F"
4.3

Item: "Cc1cccc(F)c1-c1cc(NCC2CN(C)C2)c2cc(N)ncc2c1"
0.627

Item: "CCN1CCC(Nc2cc(-c3c(C)cccc3F)cc3cnc(N)nc23)CC1"
0.647

Item: "Cc1cccc(F)c1-c1cc(N[C@H]2CCNC2)c2cc(N)ncc2c1"
0.414

###

Can you tell me pKi for the items I'm about to list?
assay.target: SIK2 (Homo sapiens)
Sequence (Q9H0K1 whole entry): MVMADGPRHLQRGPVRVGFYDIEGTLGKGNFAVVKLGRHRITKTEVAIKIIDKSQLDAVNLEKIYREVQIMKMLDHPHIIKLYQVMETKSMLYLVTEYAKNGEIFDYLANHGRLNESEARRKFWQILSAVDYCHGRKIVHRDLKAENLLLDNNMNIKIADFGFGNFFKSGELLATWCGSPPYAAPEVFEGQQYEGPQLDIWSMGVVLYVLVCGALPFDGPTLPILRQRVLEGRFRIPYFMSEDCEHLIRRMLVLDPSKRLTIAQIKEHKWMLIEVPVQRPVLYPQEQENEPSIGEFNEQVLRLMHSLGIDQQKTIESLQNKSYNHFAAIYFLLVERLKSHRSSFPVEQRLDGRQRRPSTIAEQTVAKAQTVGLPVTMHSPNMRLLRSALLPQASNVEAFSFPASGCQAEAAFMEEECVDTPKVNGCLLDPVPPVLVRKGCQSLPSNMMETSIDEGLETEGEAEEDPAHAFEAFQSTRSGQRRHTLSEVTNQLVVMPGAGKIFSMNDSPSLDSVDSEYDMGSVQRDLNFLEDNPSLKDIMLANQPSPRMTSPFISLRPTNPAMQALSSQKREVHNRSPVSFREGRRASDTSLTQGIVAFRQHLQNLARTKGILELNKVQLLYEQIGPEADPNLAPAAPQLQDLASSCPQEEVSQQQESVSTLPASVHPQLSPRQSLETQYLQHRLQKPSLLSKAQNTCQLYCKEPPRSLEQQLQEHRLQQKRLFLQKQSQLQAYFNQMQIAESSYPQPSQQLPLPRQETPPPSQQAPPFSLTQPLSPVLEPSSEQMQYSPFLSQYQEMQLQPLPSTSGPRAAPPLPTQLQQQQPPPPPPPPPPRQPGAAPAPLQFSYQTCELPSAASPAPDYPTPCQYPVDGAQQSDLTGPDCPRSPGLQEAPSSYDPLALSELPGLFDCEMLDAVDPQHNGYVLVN
Note on units: pKi is unitless, being -log10 of a concentration expressed in mol/L.

Bench note: what pKi did "Cc1cccc(F)c1-c1cc(NC[C@H]2CCCCN2C)c2cc(N)ncc2c1" show?
9.24

Item: "Cc1cccc(F)c1-c1cc(N2CC[C@@H](N(C)C)C2)c2cc(N)ncc2c1"
8.96

Item: "Cc1cccc(F)c1-c1cc(NC2CNC2)c2ccncc2c1"
9.27

Item: "Cc1cccc(Cl)c1-c1cc(NC2CNC2)c2cc(N)ncc2c1"
9.01

Item: "Cc1cccc(F)c1-c1cc(N2CCC[C@@H](CN(C)C)C2)c2cc(N)ncc2c1"
8.97

Item: "Cc1cccc(F)c1-c1cc(N2CCC[C@H](CN(C)C)C2)c2cc(N)ncc2c1"
8.84

###

assay.target: EPHA2 (Homo sapiens)
value.kind: pKi
Note on units: pKi is unitless, being -log10 of a concentration expressed in mol/L.

Bench note: what pKi did "Cc1cccc(F)c1-c1cc(NC[C@H]2CCCN(C)C2)c2cc(N)ncc2c1" show?
7.10

Item: "Cc1cccc(F)c1-c1cc(C(=O)NC2CN(C)C2)c2cc(N)ncc2c1"
6.88

Item: "Cc1cccc(F)c1-c1cc(NC2CCNCC2)c2ccncc2c1"
6.76

Item: "Cc1cccc(F)c1-c1cc(N[C@H]2CCN(C)C2)c2cc(N)ncc2c1"
7.13

Item: "Cc1cccc(F)c1-c1cc(NC2CCN(C)CC2)c2cc(N)ncc2c1"
6.71

Item: "Cc1cccc(F)c1-c1cc(NC[C@H]2CCCN2C)c2cc(N)ncc2c1"
6.60

Item: "CCN1CCC(Nc2cc(-c3c(C)cccc3F)cc3cnc(N)nc23)CC1"
6.83

Item: "Cc1cccc(F)c1-c1cc(NC2CCN(C)CC2)c2ncncc2c1"
6.61

Item: "Cc1cccc(F)c1-c1cc(NC[C@@H]2CCN(C)C2)c2cc(N)ncc2c1"
7.18
